- experimental.target: Mint2 PARM 364-570 (Y524W, Y543A) (Homo sapiens, UniProt Q99767, Y524W/Y543A)
- Sequence (Q99767 364-570 Y524W/Y543A): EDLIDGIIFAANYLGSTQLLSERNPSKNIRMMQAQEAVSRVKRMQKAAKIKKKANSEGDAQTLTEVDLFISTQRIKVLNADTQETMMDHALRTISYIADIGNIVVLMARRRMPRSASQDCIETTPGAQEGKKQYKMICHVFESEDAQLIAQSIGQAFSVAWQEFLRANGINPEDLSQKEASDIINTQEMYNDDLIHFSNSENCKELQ
- measurement.protocol: biochemical
Where no end group is shown, it is not given here.
observation.type: pKi
Note: pKi values are expressed as the negative base-10 logarithm of concentration in M.

Query: Assign pKi to the following record: NGYENPTYKFFE [APPWT (12-mer)]
Result: 5.96
